- target_of_assay: T1, GAL4 activation domain fusion (ACT) to HAB1 (UniProt Q9CAJ0 23-511, limits assumed)
- T1 construct: pACT-HAB1 fusion in yeast reporter strains; also called pACT-HAB1
- T1 sequence (looked up): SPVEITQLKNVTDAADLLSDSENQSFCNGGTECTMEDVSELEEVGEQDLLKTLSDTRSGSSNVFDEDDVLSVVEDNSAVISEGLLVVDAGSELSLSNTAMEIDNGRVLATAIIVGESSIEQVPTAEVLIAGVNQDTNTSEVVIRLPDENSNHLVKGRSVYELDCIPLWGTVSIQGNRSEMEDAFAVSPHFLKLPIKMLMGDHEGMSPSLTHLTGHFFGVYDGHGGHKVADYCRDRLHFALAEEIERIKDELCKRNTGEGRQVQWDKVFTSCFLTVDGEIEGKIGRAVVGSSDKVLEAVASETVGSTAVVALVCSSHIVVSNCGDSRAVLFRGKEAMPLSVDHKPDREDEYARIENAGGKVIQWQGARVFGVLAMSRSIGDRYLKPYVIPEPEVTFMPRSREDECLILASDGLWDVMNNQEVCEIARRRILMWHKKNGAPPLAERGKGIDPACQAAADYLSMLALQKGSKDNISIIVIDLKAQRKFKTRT
- experimental_protocol: yeast two-hybrid, X-gal; lowest mandipropamid concentration giving signal
Here, each record is paired with measured Threshold data.
# output: numeric value plus its unit

PYR1^K59R,F159L (receptor, not shown: small tags and cut ends, pBD-PYR1 fusion in yeast) MPSELTPEERSELKNSIAEFHTYQLDPGSCSSLHAQRIHAPPELVWSIVRRFDKPQTYRHFIKSCSVEQNFEMRVGCTRDVIVISGLPANTSTERLDILDDERRVTGFSIIGGEHRLTNYKSVTTVHRFEKENRIWTVVLESYVVDMPEGNSEDDTRMLADTVVKLNLQKLATVAEAMARNSGDGSGSQVT : 100 µM

Provide one value: measured Threshold of PYR1^K59R,F108N (receptor, not shown: small tags and cut ends, pBD-PYR1 fusion in yeast) MPSELTPEERSELKNSIAEFHTYQLDPGSCSSLHAQRIHAPPELVWSIVRRFDKPQTYRHFIKSCSVEQNFEMRVGCTRDVIVISGLPANTSTERLDILDDERRVTGNSIIGGEHRLTNYKSVTTVHRFEKENRIWTVVLESYVVDMPEGNSEDDTRMFADTVVKLNLQKLATVAEAMARNSGDGSGSQVT
100 µM

Provide one value: measured Threshold of PYR1^K59R,F108Q,S122G (receptor, not shown: small tags and cut ends, pBD-PYR1 fusion in yeast) MPSELTPEERSELKNSIAEFHTYQLDPGSCSSLHAQRIHAPPELVWSIVRRFDKPQTYRHFIKSCSVEQNFEMRVGCTRDVIVISGLPANTSTERLDILDDERRVTGQSIIGGEHRLTNYKGVTTVHRFEKENRIWTVVLESYVVDMPEGNSEDDTRMFADTVVKLNLQKLATVAEAMARNSGDGSGSQVT
10 µM
